Test system: Schistosoma mansoni schistosomula (LE)
Experiment: XTT viability relative to DMSO control; higher = more viable (less active)
Details: 72 h; 10 µM
The reader will find reported XTT viability values listed item by item below.

{"columns": ["compound", "uom", "XTT viability"],
 "data": [
  ["O=C1O[C@@H](CO)CN1c1cc(F)c(C2=CCN(Cc3ccccc3)CC2)c(F)c1", "%", 127],
  ["CC1(C)OB(O)c2ccc(C3=NOC(c4cc(Cl)c(F)c(Cl)c4)(C(F)(F)F)C3)cc21 (centres undefined)", "%", 33.5],
  ["CCc1nn(C)c(C(=O)NCc2ccc(Oc3ccc(C)cc3)cc2)c1Cl", "%", 72.8],
  ["CC1COC(Cn2cncn2)(c2ccc(Oc3ccc(Cl)cc3)cc2Cl)O1 (centres undefined)", "%", 47.3],
  ["Cc1cccc(C(=O)Nc2ccnc(N(C)C3CCN(CC(C)C)CC3)c2)c1", "%", 125],
  ["Nc1c2c(nc3sc4c(c13)CCCC4)CCCC2", "%", 89.4],
  ["CC(C)(C)C(O)C(Oc1ccc(-c2ccccc2)cc1)n1cncn1 (centres undefined)", "%", 106],
  ["CO[C@@H]1CN(c2ccc(C#CC3(O)CN4CCC3CC4)c(Cc3ccccc3)n2)C[C@H]1O (some centres undefined)", "%", 90.7],
  ["Cc1cc(C2=NOC(c3cc(Cl)c(F)c(Cl)c3)(C(F)(F)F)C2)ccc1C(=O)NCc1ccc2c(c1)C(C)(C)OB2O (centres undefined)", "%", 23.2]
]}

Source: the supplement of paper PMC6805474
